The following molecules are shown together with reported IC50 values.
assay-comment: Inhibition of Hedgehog signaling in mouse M210B4 cells assessed as downregulation of Gli1 mRNA expression after 24 hrs by RT-PCR analysis
Assay type: cell-based
applied-conditions: M210B4, 24 h
property-measured: IC50

# item-smiles, property-measured, endpoint-value
data = [
    ("CS(=O)(=O)c1ccc(C(=O)Nc2ccc(Cl)c(-c3ccccn3)c2)c(Cl)c1", "IC50", "200 nM"),
    ("CC1=C2C[C@H]3[C@@H](CC=C4C[C@@H](O)CC[C@@]43C)[C@@H]2CC[C@]12O[C@@H]1C[C@H](C)CN[C@H]1[C@H]2C", "IC50", "800 nM"),
    ("C=C1CC[C@H](O)C/C1=C/C=C1\\CCC[C@]2(C)[C@@H]([C@H](C)CCCC(C)C)CC[C@@H]12", "IC50", "> 10000 nM"),
    ("CC(C)CCC[C@@H](C)[C@H]1CC[C@H]2[C@@H](OC(=O)c3cccc(O)c3)CCC[C@]12C", "IC50", "1100 nM"),
]
